# target-or-system: CBD (Human, UniProt Q9UM54-5 1060-1253)
# Sequence (Q9UM54 other isoform, or with tags, fused parts or gaps): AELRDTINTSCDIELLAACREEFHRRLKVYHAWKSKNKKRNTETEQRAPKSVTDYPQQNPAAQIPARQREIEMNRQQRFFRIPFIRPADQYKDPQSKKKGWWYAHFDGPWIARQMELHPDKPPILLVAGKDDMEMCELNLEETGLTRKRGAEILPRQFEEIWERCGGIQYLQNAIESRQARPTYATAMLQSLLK
# test-method-notes: fluorescence anisotropy; FAM-DNA 50 nM; assay buffer, salt, pH and temperature not given in the material (duplex annealing in water or 50 mM Tris-HCl pH 7.5, 150 mM NaCl, 3 mM MgCl2)
# particulars: protein: recombinant; tags: His-tag (pET28)
test-readout: Kd (nM)

{"columns": ["binder", "unit-info", "result"],
 "data": [
  ["TTTTTTTTTTTTTTTTTTTT (ssDNA) [dT20]", "nM", 120]
]}

src = paper PMC5707354
